Ref: patent EP2914280B1

- system_under_test: hSSTR1 (Homo sapiens, UniProt P30872)
- Construct: expressed in transfected cells; host or cells: CHO-K1 (ATCC), pcDNA3.1, G418-selected clonal line; membranes
- Sequence (P30872 whole entry): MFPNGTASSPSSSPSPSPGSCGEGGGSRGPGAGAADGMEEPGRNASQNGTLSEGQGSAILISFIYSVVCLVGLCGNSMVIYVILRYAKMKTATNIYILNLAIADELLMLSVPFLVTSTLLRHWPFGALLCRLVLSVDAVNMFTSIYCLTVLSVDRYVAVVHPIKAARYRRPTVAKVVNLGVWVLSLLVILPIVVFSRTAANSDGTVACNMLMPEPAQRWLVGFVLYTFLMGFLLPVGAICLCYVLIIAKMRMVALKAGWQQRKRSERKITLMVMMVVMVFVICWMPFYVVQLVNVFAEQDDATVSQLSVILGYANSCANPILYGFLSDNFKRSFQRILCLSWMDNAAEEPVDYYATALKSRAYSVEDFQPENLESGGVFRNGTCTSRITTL
- procedure_summary: Somatostatin receptor radioligand binding assay (hSSTR1)
Numbered stars: 1 amine (or outer) side, 2 acyl side, 3 side chain; on linkers, the order of the positions; unused ones are H or OH. Bridge positions count the residues as written; N and C are the ends. Square brackets hold non-standard residues; d marks the D form. Peptide text beside a SMILES is read from it. X1 = CN1C[C@H](CSCCN(CCSC[C@@H]2C[C@@H]3c4cccc5[nH]cc(c45)C[C@H]3N(C)C2)[C@H](CCCCN[*:2])C(=O)[*:1])C[C@@H]2c3cccc4[nH]cc(c34)C[C@H]21; 4Pal = N[C@@H](Cc1ccncc1)C(=O)O
Note to self: use rule met only for Ki readings below 30 nM; a reading exactly at 30 nM still gets rule not met.

| molecule | cat |
| --- | --- |
| C[C@@H](O)[C@@H]1NC(=O)[C@H](CCCCN)NC(=O)[C@@H](Cc2c[nH]c3ccccc23)NC(=O)[C@H](Cc2ccccc2)NC(=O)[C@H](Cc2ccccc2)NC(=O)[C@H](CCCNC(=N)N)NC(=O)[C@H](NCCSC[C@@H]2C[C@@H]3c4cccc5[nH]cc(c45)C[C@H]3N(C)C2)CCCCNC(=O)[C@H](Cc2ccccc2)NC1=O | rule not met |
| C[C@@H](O)[C@@H]1NC(=O)[C@H](CCCCN)NC(=O)[C@@H](Cc2c[nH]c3ccccc23)NC(=O)[C@H](Cc2ccncc2)NC(=O)[C@H](Cc2ccccc2)NC(=O)[C@H](CCCNC(=N)N)NC(=O)[C@H](N(CCSC[C@@H]2C[C@@H]3c4cccc5[nH]cc(c45)C[C@H]3N(C)C2)CCSC[C@@H]2C[C@@H]3c4cccc5[nH]cc(c45)C[C@H]3N(C)C2)CCCCNC(=O)[C@H](Cc2ccccc2)NC1=O [Compound 29] (RF[4Pal][dW]KTF; linker N-C via X1) | rule met |
| C[C@@H](O)[C@@H]1NC(=O)[C@H](CCCCN)NC(=O)[C@@H](Cc2c[nH]c3ccccc23)NC(=O)[C@H](Cc2ccncc2)NC(=O)[C@H](Cc2ccccc2)NC(=O)[C@H](CCCNC(=N)N)NC(=O)[C@H](NC[C@H](CCCCNC(=O)C[S+]([O-])C[C@@H]2C[C@@H]3c4cccc5[nH]cc(c45)C[C@H]3N(C)C2)NC(=O)C[S+]([O-])C[C@@H]2C[C@@H]3c4cccc5[nH]cc(c45)C[C@H]3N(C)C2)CCCCNC(=O)[C@H](Cc2ccccc2)NC1=O (stereo partly shown) | rule not met |
| C[C@@H](O)[C@@H]1NC(=O)[C@H](CCCCN)NC(=O)[C@@H](Cc2c[nH]c3ccccc23)NC(=O)[C@H](Cc2ccccc2)NC(=O)[C@H](Cc2ccccc2)NC(=O)[C@H](CCCNC(=N)N)NC(=O)[C@H](NCC[S+]([O-])C[C@@H]2C[C@@H]3c4cccc5[nH]cc(c45)C[C@H]3N(C)C2)CCCCNC(=O)[C@H](Cc2ccc(F)cc2)NC1=O (stereo partly shown) | rule met |
| C[C@@H](O)[C@@H]1NC(=O)[C@H](CCCCN)NC(=O)[C@@H](Cc2c[nH]c3ccccc23)NC(=O)[C@H](Cc2ccccc2)NC(=O)[C@H](Cc2ccccc2)NC(=O)[C@H](CCCNC(=N)N)NC(=O)[C@H](NC[C@H](Cc2ccc(O)cc2)NC(=O)CSC[C@@H]2C[C@@H]3c4cccc5[nH]cc(c45)C[C@H]3N(C)C2)CCCCNC(=O)[C@H](Cc2ccc(O)cc2)NC1=O | rule met |
| C[C@@H](O)[C@@H]1NC(=O)[C@H](CCCCN)NC(=O)[C@@H](Cc2c[nH]c3ccccc23)NC(=O)[C@H](Cc2ccccc2)NC(=O)[C@H](Cc2ccccc2)NC(=O)[C@H](CCCNC(=N)N)NC(=O)[C@H](NC[C@H](Cc2ccc(O)cc2)NC(=O)C[S+]([O-])C[C@@H]2C[C@@H]3c4cccc5[nH]cc(c45)C[C@H]3N(C)C2)CCCCNC(=O)[C@H](Cc2ccc(F)cc2)NC1=O (stereo partly shown) | rule met |
| C[C@@H](O)[C@@H]1NC(=O)[C@H](CCCCN)NC(=O)[C@@H](Cc2c[nH]c3ccccc23)NC(=O)[C@H](Cc2ccncc2)NC(=O)[C@H](Cc2ccccc2)NC(=O)[C@H](CCCNC(=N)N)NC(=O)[C@H](NCC[S@+]([O-])C[C@@H]2C[C@@H]3c4cccc5[nH]cc(c45)C[C@H]3N(C)C2)CCCCNC(=O)[C@H](Cc2ccc(O)cc2)NC1=O | rule not met |
